Recorded values, source PubChem BioAssay AID1963846.

Tested on: 454973-116-R2-J3-PDC complex spheroid viability;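 note: spheroids exposed to drugs for seven days before measurement; percent viability relative to DMSO vehicle control wells taken as 100%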
assay: Anticancer human tumor 454973-116-R2-J3-PDC patient-derived pancreatic carcinoma cell line growth inhibition [POLQ]
condition.set: second compound 3.16 µM; first compound 0.0316 µM; active compounds read low
Provide the reported viability, T/C of each item.
Respond with the bare value in %.

Tested on 454973-116-R2-J3-PDC complex spheroid viability, the item CCc1cc2c(N3CCc4c(cc(Cn5ccnc5)cc4-c4cn(C)nc4C(F)(F)F)C3=O)ccnc2c(OC)n1 + Nc1ccc(C#CCN(C(=O)Cc2ncc(C(F)(F)F)cc2C(F)(F)F)c2ccc(F)cc2)nn1 showed viability, T/C equal to 101

Tested on 454973-116-R2-J3-PDC complex spheroid viability, the item CC1COCCN1c1cc(C2(S(C)(=N)=O)CC2)nc(-c2ccnc3[nH]ccc23)n1 (stereo unspecified) + Cc1cccc(N(C)C(=O)C2C(O)CCN2c2nc(C)cc(C(F)(F)F)c2C#N)c1 showed viability, T/C equal to 117

Tested on 454973-116-R2-J3-PDC complex spheroid viability, the item COc1cc2cc(C(=O)CCC(=O)O)sc2cc1OC + COC1C(OC(N)=O)C(O)C(Oc2ccc3c(O)c(NC(=O)c4ccc(O)c(CC=C(C)C)c4)c(=O)oc3c2C)OC1(C)C showed viability, T/C equal to 110

Tested on 454973-116-R2-J3-PDC complex spheroid viability, the item COc1cc2cc(C(=O)CCC(=O)O)sc2cc1OC + Cc1cccc(N(C)C(=O)C2C(O)CCN2c2nc(C)cc(C(F)(F)F)c2C#N)c1 showed viability, T/C equal to 103

Tested on 454973-116-R2-J3-PDC complex spheroid viability, the item O=C(Nc1ccc(O)c(NS(=O)(=O)c2ccc(F)cc2)c1)c1ccc(-c2ccccc2)cc1 + COC1C(OC(N)=O)C(O)C(Oc2ccc3c(O)c(NC(=O)c4ccc(O)c(CC=C(C)C)c4)c(=O)oc3c2C)OC1(C)C showed viability, T/C equal to 113

Tested on 454973-116-R2-J3-PDC complex spheroid viability, the item Nc1ccn(C2OC(CO)C(O)C2(F)F)c(=O)n1 (stereo unspecified) + Nc1ccc(C#CCN(C(=O)Cc2ncc(C(F)(F)F)cc2C(F)(F)F)c2ccc(F)cc2)nn1 showed viability, T/C equal to 9.42

Tested on 454973-116-R2-J3-PDC complex spheroid viability, the item O=c1[nH]cc(F)c(=O)[nH]1 + Nc1ccc(C#CCN(C(=O)Cc2ncc(C(F)(F)F)cc2C(F)(F)F)c2ccc(F)cc2)nn1 showed viability, T/C equal to 120

Tested on 454973-116-R2-J3-PDC complex spheroid viability, the item C=CC(=O)N1CCN(c2nc(=O)n(-c3c(C)ccnc3C(C)C)c3nc(-c4c(O)cccc4F)c(F)cc23)C(C)C1 (stereo unspecified) + Nc1ccc(C#CCN(C(=O)Cc2ncc(C(F)(F)F)cc2C(F)(F)F)c2ccc(F)cc2)nn1 showed viability, T/C equal to 111

Tested on 454973-116-R2-J3-PDC complex spheroid viability, the item CC(C)n1c(=O)n(C)c2cnc3cc(F)c(-c4ccc(OCCCN5CCCCC5)nc4)cc3c21 + Nc1ccc(C#CCN(C(=O)Cc2ncc(C(F)(F)F)cc2C(F)(F)F)c2ccc(F)cc2)nn1 showed viability, T/C equal to 111

Tested on 454973-116-R2-J3-PDC complex spheroid viability, the item CCc1cc2c(N3CCc4c(cc(Cn5ccnc5)cc4-c4cn(C)nc4C(F)(F)F)C3=O)ccnc2c(OC)n1 + Cc1cccc(N(C)C(=O)C2C(O)CCN2c2nc(C)cc(C(F)(F)F)c2C#N)c1 showed viability, T/C equal to 97.8

Tested on 454973-116-R2-J3-PDC complex spheroid viability, the item CC1COCCN1c1cc(C2(O)CC3CCC(C2)O3)c2cnn(-c3ccn[nH]3)c2n1 (stereo unspecified) + COC1C(OC(N)=O)C(O)C(Oc2ccc3c(O)c(NC(=O)c4ccc(O)c(CC=C(C)C)c4)c(=O)oc3c2C)OC1(C)C showed viability, T/C equal to 104
